The reported measurements were obtained from the supplement of paper PMC10338343.

# Test system: MIWI (PIWIL1) piRISC loaded with L1MC piRNA (30 nt);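 note: 1 nM active piRISC with 0.1 nM target library at 33 °C single turnover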
# protocol_notes: pre-steady-state target cleavage rate (min^-1); MIWI and MILI are mouse PIWI proteins and EfPiwi is from a freshwater sponge; tags in brackets are library labels; higher = faster piRNA-guided slicing of the target;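 note: 1 nM active piRISC with 0.1 nM target library at 33 °C single turnover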
# run_conditions: guide: L1MC piRNA 5'p-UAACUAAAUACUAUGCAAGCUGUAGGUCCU; auxiliary factor: none (no GTSF1)
Over roughly 8,200 sequences, “pre-steady-state target cleavage rate” has its median near 0.024; the highest 2% begin near 1.3. The list comes from a sample in which the highest values are over-represented; it also holds close analogues and randomly drawn sequences.
Readings of pre-steady-state target cleavage rate for the listed sequences
measure_name: pre-steady-state target cleavage rate

sequence_input | measurement_target | result
UCCUGGAUCUAGCUUGCAUAGUAUUUAGUUA | MIWI (PIWIL1) piRISC loaded with L1MC piRNA (30 nt) | 0.0445
AGGACACUACAGCUUGCAUAGUAUUUAGUUA | MIWI (PIWIL1) piRISC loaded with L1MC piRNA (30 nt) | 0.0749
UCCUCCUACACCUAGCAUAGUAUUUAGUUA | MIWI (PIWIL1) piRISC loaded with L1MC piRNA (30 nt) | 0.0111
UCCUCCUAGAGCUUGCUUAGUAUUUAGUUA | MIWI (PIWIL1) piRISC loaded with L1MC piRNA (30 nt) | 0.0213
UGGACGCUACAGCUUGCAUAGUAUUUAGUUA | MIWI (PIWIL1) piRISC loaded with L1MC piRNA (30 nt) | 0.0759
UCCUGCUACAGCUUGCAUAGAAAUUAGUUA | MIWI (PIWIL1) piRISC loaded with L1MC piRNA (30 nt) | 0.00609
UCCUGGUACAGGCUUGCAUAGUAUUUAGUUA | MIWI (PIWIL1) piRISC loaded with L1MC piRNA (30 nt) | 0.0384
UGGAUCUACAGCUUGCAUAGUAUUUAGUUA | MIWI (PIWIL1) piRISC loaded with L1MC piRNA (30 nt) | 0.0958
UCCUCCUACAGCUUGCAUACUAUUUAGAUA | MIWI (PIWIL1) piRISC loaded with L1MC piRNA (30 nt) | 0.0075
UCCUGGAUGUGCGUUGCAUAGUAUUUAGUUA | MIWI (PIWIL1) piRISC loaded with L1MC piRNA (30 nt) | 0.00987
UCCAUCUACAGCUUGCAUAGUAUUUAGUUA | MIWI (PIWIL1) piRISC loaded with L1MC piRNA (30 nt) | 0.0538
UCCUGGUACACCUAGCAUAGUAUUUAGUUA | MIWI (PIWIL1) piRISC loaded with L1MC piRNA (30 nt) | 0.00414
UCGAGCAACAGCUUGCAUAGUAUUUAGUUA | MIWI (PIWIL1) piRISC loaded with L1MC piRNA (30 nt) | 0.076
